tgt: human apical sodium-dependent transporter (SLC10A2, ASBT) (Homo sapiens, UniProt Q12908)
Sequence (Q12908 whole entry): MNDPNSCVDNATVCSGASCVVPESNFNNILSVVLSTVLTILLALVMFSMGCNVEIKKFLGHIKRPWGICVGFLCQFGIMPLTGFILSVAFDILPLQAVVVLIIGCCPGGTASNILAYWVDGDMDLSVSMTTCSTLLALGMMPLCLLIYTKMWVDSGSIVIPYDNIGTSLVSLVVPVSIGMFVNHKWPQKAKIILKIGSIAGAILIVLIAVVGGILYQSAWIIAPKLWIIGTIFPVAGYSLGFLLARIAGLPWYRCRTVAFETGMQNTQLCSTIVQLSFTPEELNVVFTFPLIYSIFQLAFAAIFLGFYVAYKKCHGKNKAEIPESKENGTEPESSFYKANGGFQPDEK
protocolText: ASBT cis-inhibition of taurocholate uptake in ASBT-MDCK cells
recordedConditions: Ki, inhibitor concentration range 0-50 μM; mean±S.E.
Structures can show the parent of a compound that is named as a salt.
Exercise: state measured Ki for each of the compounds provided.
Give bare numbers, in µM.

# count of solved cases: 6
> print(dat)
                                   compound  measvalue
1  COc1ccc([C@@H]2Sc3ccccc3N(CCN(C)C)C(=O)[C@@H]2OC(C)=O)cc1 [Diltiazem hydrochloride, diltiazem hydrochloride]        124
2  NS(=O)(=O)c1cc2c(cc1C(F)(F)F)NC(Cc1ccccc1)NS2(=O)=O (stereo not shown) [Bendroflumethiazide, bendroflumethiazide]       84.3
3  COC(=O)C1=C(C)NC(C)=C(C(=O)OC(C)C)C1c1cccc2nonc12 (stereo not shown)       42.7
4  O=C(O)C[C@H](O)C[C@H](O)/C=C/c1c(C2CC2)nc2ccccc2c1-c1ccc(F)cc1       59.8
5  CC(C)(C#N)c1cc(Cn2cncn2)cc(C(C)(C)C#N)c1        231
6  CC(C)OC(=O)CCC/C=C\C[C@@H]1[C@@H](CC[C@@H](O)CCc2ccccc2)[C@H](O)C[C@@H]1O       15.1

Moving on to the next compound.
Note down Ki recorded for CCOC(=O)C1=C(C)NC(C)=C(C(=O)OC)C1c1cccc([N+](=O)[O-])c1 (stereo not shown)
43.9

All values here come from paper PMC2909451.
